Tested on: IL-6 levels in human whole blood stimulated with a TLR2 agonist
Test: IRAK4 Whole Blood Assay (lipoteichoic acid/TLR2-stimulated IL-6)
Format: cell-based
Settings: Homo sapiens, lipoteichoic acid 10 μg/mL, IL-6 readout
pEC50: −log10 of the molar value.
Would you mind labelling by pEC50? At or over 6 is rule met, under is rule not met.

Example results:
CC(C)(CO)Nc1cc(-c2cnn3cc(Cl)cnc23)ncc1C(=O)NC[C@@H](F)C(C)(C)O = rule met
CC(C)(O)[C@H](F)CNC(=O)c1cnc(-c2cnn3cc(Cl)cnc23)cc1NC1CCOCC1 = rule met
CC(C)(O)[C@H]1CC[C@H](NC(=O)c2cnc(-c3cnn4cc(Cl)cnc34)cc2NC2COC2)CC1 = rule not met
CC(C)Nc1cc(-c2cnn3cc(F)cnc23)ncc1C(=O)NC[C@@H](F)C(C)(C)O = rule not met
CC(F)(F)Cn1cc(Nc2cc(-c3cnc4cc(C#N)cnn34)ncc2C(=O)NC[C@@H](F)C(C)(C)O)cn1 = rule met
CCC(C)Nc1cc(-c2cnn3cc(Cl)cnc23)ncc1C(=O)NC[C@@H](F)C(C)(C)O (stereo in doubt) = rule not met
CC(C)(O)[C@H](F)CNC(=O)c1cnc(-c2cnn3cc(Cl)cnc23)cc1Nc1cccc(C#N)c1F = rule not met
CC(C)(O)[C@H](F)CNC(=O)c1cnc(-c2cnc3cc(C#N)cnn23)cc1N[C@@H]1CCN(c2ncc(F)cn2)C1 = rule met
CC(C)(O)[C@H](F)CNC(=O)c1cnc(-c2cnc3cc(C#N)cnn23)cc1NC1CC1 = rule met

INPUT: Check the entry `CC(C)(F)Cn1ccc(Nc2cc(-c3cnn4cc(Cl)cnc34)ncc2C(=O)NC[C@@H](F)C(C)(C)O)n1` : does pEC50 equal or exceed 6?
OUTPUT: rule met

###

Target: IRAK4 (Homo sapiens (Human))
Sequence (Q9NWZ3 whole entry): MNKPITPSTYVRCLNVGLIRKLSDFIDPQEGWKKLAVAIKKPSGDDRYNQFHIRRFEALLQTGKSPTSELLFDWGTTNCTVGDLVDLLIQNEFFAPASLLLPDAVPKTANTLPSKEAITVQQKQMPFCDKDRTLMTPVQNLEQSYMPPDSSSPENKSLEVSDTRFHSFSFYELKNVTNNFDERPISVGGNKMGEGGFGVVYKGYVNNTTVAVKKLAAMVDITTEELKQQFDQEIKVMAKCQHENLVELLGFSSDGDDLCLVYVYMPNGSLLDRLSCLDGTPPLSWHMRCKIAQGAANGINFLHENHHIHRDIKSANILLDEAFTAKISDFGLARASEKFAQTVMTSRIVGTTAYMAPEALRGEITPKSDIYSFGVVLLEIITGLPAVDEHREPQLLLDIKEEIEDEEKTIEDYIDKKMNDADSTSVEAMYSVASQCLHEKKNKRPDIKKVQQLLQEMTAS
Catalogue of IC50 readings, one per entry.
Report only the number, with the unit nM understood.

Below, 6 molecules whose answers are already recorded.
CC(C)Nc1cc(-c2cnn3cc(C#N)cnc23)ncc1C(=O)NC[C@@H](F)C(C)(C)OC(F)F = 5
CC(C)(O)[C@H]1CC[C@H](NC(=O)c2cnc(-c3cnc4cc(C#N)cnn34)cc2Nc2cnn(C3CC3)c2)CC1 = 2
CC(C)(O)[C@H](F)CNC(=O)c1cnc(-c2cnn3cc(C#N)cnc23)cc1NCC1(O)COC1 = 52
C[C@H](CO)Nc1cc(-c2cnn3cc(C#N)cnc23)ncc1C(=O)NC[C@@H](F)C(C)(C)O = 6
C[C@@H](CO)Nc1cc(-c2cnc3cccnn23)ncc1C(=O)NCCC(C)(C)O = 75
CC(C)(O)[C@H](F)CNC(=O)c1cnc(-c2cnn3cc(Cl)cnc23)cc1NCCC(F)(F)F [Example 161] = 6

Next molecule, please.
INPUT: Using the record for `CCNc1cc(-c2cnn3cc(Cl)cnc23)ncc1C(=O)NC[C@@H](F)C(C)(C)O` , report its IC50.
OUTPUT: 5

###

System: IL-6 levels in human whole blood stimulated with a TLR2 agonist
Assay: IRAK4 Whole Blood Assay (lipoteichoic acid/TLR2-stimulated IL-6)
Format: cell-based
Conditions: Homo sapiens, lipoteichoic acid 10 μg/mL, IL-6 readout
Description: Human whole blood containing the anti-coagulant ACD-A was plated in 384-well plate (25 μL/well) and incubated with compounds for 60 minutes at 37° C. in a 5% CO2 incubator. The blood was stimulated with a TLR2 agonist, 10 μg/mL final concentration of lipoteichoic acid (Invivogen, San Diego, Calif.) in 25 μL RPMI (Gibco) for 5 hours in a 5% CO2 incubator. […] Supernatants were harvested and analyzed for IL-6 levels by Flow Cytometry beads assay (BD Biosciences, San Jose, Calif.).
METRIC: EC50 (nM)
Report only the number, with the unit nM understood.

CC(C)(F)Cn1cc(Nc2cc(-c3cnn4cc(C#N)cnc34)ncc2C(=O)NC[C@@H](F)C(C)(C)O)cn1 = 200
C[C@@H](CF)Nc1cc(-c2cnc3cc(C#N)cnn23)ncc1C(=O)NCCC(C)(C)O = 570
CCO[C@H]1CC[C@H](NC(=O)c2cnc(-c3cnn4cc(Cl)cnc34)cc2NC(C)C)CC1 = 660
CC(C)(O)[C@H]1CC[C@H](NC(=O)c2cnc(-c3cnn4cc(C#N)cnc34)cc2NC2COC2)CC1 = 800
C[C@@H](CO)Nc1cc(-c2cnc3cc(Cl)cnn23)ncc1C(=O)NC[C@@H](F)C(C)(C)O = 100

INPUT: Using the record for `C[C@@H](CF)Nc1cc(-c2cnc3cc(C#N)cnn23)ncc1C(=O)NC[C@@H](F)C(C)(C)O` , report its EC50.
OUTPUT: 430

INPUT: Using the record for `CC(C)(O)[C@H](F)CNC(=O)c1cnc(-c2cnn3cc(Cl)cnc23)cc1Nc1cnn(C2COC2)c1` , report its EC50.
OUTPUT: 300

INPUT: Using the record for `CCCNc1cc(-c2cnc3cc(Cl)cnn23)ncc1C(=O)NC[C@@H](F)C(C)(C)O` , report its EC50.
OUTPUT: 700

INPUT: Using the record for `CC(C)(O)[C@H](F)CNC(=O)c1cnc(-c2cnn3cc(Cl)cnc23)cc1Nc1ccn(CC(F)F)c1` , report its EC50.
OUTPUT: 250

INPUT: Using the record for `CC(=O)N[C@H]1CC[C@H](NC(=O)c2cnc(-c3cnc4cc(C#N)cnn34)cc2NC(C)C)CC1` , report its EC50.
OUTPUT: 340

Just for reference, patent US10618903B2 is where these values come from.
